Protocol summary: Hepatocyte intrinsic clearance and metabolite profile
Assay type: in vitro ADME, cynomolgus monkey
Condition description: male, cynomolgus, cynomolgus monkey, cryopreserved hepatocytes; 1 µM; read-out: CLint in vitro
Value type: CLint scaled at 1 µM (mL/min/kg)

Compound | Result
CCOc1ccc2ccc(=O)oc2c1 [7-ethoxycoumarin, reference compound] | 1480

###

The compounds listed here are annotated with their Cmax.
Protocol summary: Rat 28-day toxicokinetics
Assay type: in vivo
Condition description: both sexes, Sprague-Dawley (Crl:CD (SD)IGS BR), plasma, po, 800 mg/kg/day, 800 mg/kg/day po, day 1
Value type: Cmax (ng/mL)

Compound | Result
CSc1ccc(OCc2ncc([N+](=O)[O-])n2C)cc1 | 1480
Cn1c([N+](=O)[O-])cnc1COc1ccc([S+](C)[O-])cc1 (stereo not drawn) [Fexinidazole sulfoxide] | 31700
Cn1c([N+](=O)[O-])cnc1COc1ccc(S(C)(=O)=O)cc1 | 42600

###

The molecules listed here are annotated with their AUC(0-t).
Protocol summary: Rat 28-day toxicokinetics
Type: in vivo
Condition description: female, Sprague Dawley (Crl:CD (SD)IGS BR), plasma, po, 800 mg/kg/day, Day 28, female (n=2), read-out: AUC0-t(last)
Value type: AUC(0-t) (µg·h/mL)

Molecule | Value type | Result
Cn1c([N+](=O)[O-])cnc1COc1ccc([S+](C)[O-])cc1 (centres unmarked) [Fexinidazole sulfoxide] | AUC(0-t) | 331
CSc1ccc(OCc2ncc([N+](=O)[O-])n2C)cc1 | AUC(0-t) | 7.94

###

The compounds listed here are annotated with their hepatocyte CLint at 1 µM.
Protocol summary: Hepatocyte intrinsic clearance and metabolite profile
Assay type: in vitro ADME, human
Condition description: human, cryopreserved pooled hepatocytes, 1 µM; read-out: CLint in vitro
Value type: hepatocyte CLint at 1 µM

Compound | Result
CCOc1ccc2ccc(=O)oc2c1 [7-ethoxycoumarin, reference compound] | 144 µL/min/1e6 cells
CSc1ccc(OCc2ncc([N+](=O)[O-])n2C)cc1 | 51.9 µL/min/1e6 cells

###

The compounds listed here are annotated with their Cmax.
Protocol summary: Dog 28-day toxicokinetics
Type: in vivo
Condition description: both sexes, beagle, plasma, po, 50 mg/kg/day, 50 mg/kg/day po, day 1
Value type: Cmax (µg/mL)

Compound | Value type | Unit annotation | Result
CSc1ccc(OCc2ncc([N+](=O)[O-])n2C)cc1 [Fexinidazole] | Cmax | µg/mL | 0.04
Cn1c([N+](=O)[O-])cnc1COc1ccc(S(C)(=O)=O)cc1 [Fexinidazole sulfone] | Cmax | µg/mL | 8.58
Cn1c([N+](=O)[O-])cnc1COc1ccc([S+](C)[O-])cc1 (stereo not drawn) [Fexinidazole sulfoxide] | Cmax | µg/mL | 3.76

###

Protocol summary: in vivo
Condition description: male, NMRI, mouse, po, 200 mg/kg/day

Compound | AUC(0-t)
CC1CS(=O)(=O)CCN1/N=C/c1ccc([N+](=O)[O-])o1 (stereo not shown) | 45.7 µg·h/mL

###

The compounds listed here are annotated with their AUC(0-t).
Protocol summary: Rat 28-day toxicokinetics
Format: in vivo
Condition description: female, Sprague Dawley (Crl:CD (SD)IGS BR), plasma, po, 200 mg/kg, Day 1, female, read-out: AUC0-t(last)
Value type: AUC(0-t)

Compound | Value type | Result
Cn1c([N+](=O)[O-])cnc1COc1ccc(S(C)(=O)=O)cc1 | AUC(0-t) | 134000 ng·h/mL
Cn1c([N+](=O)[O-])cnc1COc1ccc([S+](C)[O-])cc1 (stereo not drawn) [Fexinidazole sulfoxide] | AUC(0-t) | 91400 ng·h/mL
CSc1ccc(OCc2ncc([N+](=O)[O-])n2C)cc1 | AUC(0-t) | 3200 ng·h/mL

Origin of values: paper PMC3006138
